# subject.of.test: T1, carcinoembryonic antigen (CEA) (human, UniProt P06731 35-685)
# T1 sequence (looked up): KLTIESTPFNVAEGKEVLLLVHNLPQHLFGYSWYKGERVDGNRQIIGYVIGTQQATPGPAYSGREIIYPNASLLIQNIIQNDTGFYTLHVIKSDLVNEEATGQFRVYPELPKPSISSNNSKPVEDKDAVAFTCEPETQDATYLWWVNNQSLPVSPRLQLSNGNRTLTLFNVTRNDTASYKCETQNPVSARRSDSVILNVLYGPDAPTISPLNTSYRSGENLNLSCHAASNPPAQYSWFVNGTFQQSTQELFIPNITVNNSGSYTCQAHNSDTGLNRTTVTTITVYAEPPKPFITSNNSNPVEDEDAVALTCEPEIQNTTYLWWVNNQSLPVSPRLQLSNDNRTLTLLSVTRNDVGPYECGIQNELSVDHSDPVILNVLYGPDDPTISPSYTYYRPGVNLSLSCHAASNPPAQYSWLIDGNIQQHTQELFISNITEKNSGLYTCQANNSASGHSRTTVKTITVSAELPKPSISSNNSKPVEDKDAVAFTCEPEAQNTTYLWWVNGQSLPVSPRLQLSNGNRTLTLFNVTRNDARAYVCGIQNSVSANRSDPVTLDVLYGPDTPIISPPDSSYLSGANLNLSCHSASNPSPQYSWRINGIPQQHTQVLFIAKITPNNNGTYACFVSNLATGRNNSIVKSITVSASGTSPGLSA
# protocol.text: competition RIA against 125I-mCOL-1; reference of the fold not named
# Lookup of reported Fold Difference keyed by entry

binder	Fold Difference
FRV8 (antibody, name in Kabat numbering, V domains shown, Kabat positions; also called HuCOL-1AbrCDR framework variant 8) VH: EVQLVQSGAEVVKPGASVKVSCKASGYNIKDYYMHWVRQRPEQGLEWMGWIDPENGDTEYAQKFQGRVTMTTDTSTSTVYMELSSLRSEDTAVYYCNTRGLSTMITTRWFFDVWGAGTLVTVSS VL: DIVMTQSPASLAVSLGERATINCKSSQSVSASGYSYMHWYQQKPGQPPKLLIYLASNLQSGVPARFSGSGSGTDFTLTISSLQAEDVATYYCQHSRELPTFGGGTKVEIK	3.6 fold
HuCOL-1AbrCDR framework variant 7 (FRV7) (antibody, V domains shown, also called HuCOL-1FRV7; FR7) VH: EVQLVQSGAEVVKPGASVKVSCKASGYNIKDYYMHWVRQRPEQGLEWMGWIDPENGDTEYAQKFQGRVTMTTDTSTSTVYMELSSLRSEDTAVYYCNTRGLSTMITTRWFFDVWGAGTLVTVSS VL: DIVLTQSPASLAVSLGERATINCKSSQSVSASGYSYMHWYQQKPGQPPKLLIYLASNLQSGVPARFSGSGSGTDFTLTISSVQAEDVATYYCQHSRELPTFGGGTKLEIK	0.9 fold
HuCOL-1 (antibody, V domains shown, Whole humanized antibody; also called humanized COL-1; ATCC PTA-4661) VH: EVQLVQSGAEVVKPGASVKMSCKASGFNIKDYYMHWVKQAPGQGLEWIGWIDPENGDTEYAPKFQGKATMTTDTSTSTAYLELSSLRSEDTAVYYCNTRGLSTMITTRWFFDVWGAGTLVTVSS VL: DIVLTQSPASLAVSLGERATINCRASKSVSASGYSYMHWYQQKPGQPPKLLIYLASNLQSGVPARFSGSGSGTDFTLTISSVQAEDVATYYCQHSRELPTFGGGTKLEIK	1 fold
FRV5 (antibody, name in Kabat numbering, V domains shown, Kabat positions; also called HuCOL-1AbrCDR framework variant 5) VH: EVQLVQSGAEVVKPGASVKVSCKASGFNIKDYYMHWVRQRPEQGLEWMGWIDPENGDTEYAQKFQGRATMTTDTSTSTVYMELSSLRSEDTAVYYCNTRGLSTMITTRWFFDVWGAGTLVTVSS VL: DIVMTQSPASLAVSLGERATINCKSSQSVSASGYSYMHWYQQKPGQPPKLLIYLASNLQSGVPARFSGSGSGTDFTLTISSLQAEDVATYYCQHSRELPTFGGGTKVEIK	2.7 fold
murine COL-1 monoclonal antibody (antibody, V domains shown, Whole murine antibody; also called mCOL-1; muCOL-1) VH: EVQLQQSGAELVRSGASVKMSCTASGFNIKDYYMHWVKQRPEQGLEWIGWIDPENGDTEYAPKFQGKATMTTDTSSNTAYLQLSSLTSEDTAVYYCNTRGLSTMITTRWFFDVWGAGTTVAVSS VL: DIVLTQSPASLTVSLGLRATISCRASKSVSASGYSYMHWYQQRPGQPPKLLIYLASNLQSGVPARFSGSGSGTDFTLNIHPVEEEDAATYYCQHSRELPTFGGGTKLEIK	1 fold
FRV3 (antibody, name in Kabat numbering, V domains shown, Kabat positions (see note of FRV2); also called HuCOL-1AbrCDR framework variant 3) VH: EVQLVQSGAEVVKPGASVKMSCKASGFNIKDYYMHWVKQRPEQGLEWIGWIDPENGDTEYAQKFQGKATMTTDTSTSTAYLELSSLRSEDTAVYYCNTRGLSTMITTRWFFDVWGAGTLVTVSS VL: DIVMTQSPASLAVSLGERATINCKSSQSVSASGYSYMHWYQQKPGQPPKLLIYLASNLQSGVPDRFSGSGSGTDFTLTISSLQAEDVAVYYCQHSRELPTFGGGTKVEIK	8.6 fold
